Provenance of the data: patent US20250163054A1

Please go through the items and note down their pIC50.
- Target desc: human TLR9 (Homo sapiens)
- Sequence (Q9NR96 26-1032): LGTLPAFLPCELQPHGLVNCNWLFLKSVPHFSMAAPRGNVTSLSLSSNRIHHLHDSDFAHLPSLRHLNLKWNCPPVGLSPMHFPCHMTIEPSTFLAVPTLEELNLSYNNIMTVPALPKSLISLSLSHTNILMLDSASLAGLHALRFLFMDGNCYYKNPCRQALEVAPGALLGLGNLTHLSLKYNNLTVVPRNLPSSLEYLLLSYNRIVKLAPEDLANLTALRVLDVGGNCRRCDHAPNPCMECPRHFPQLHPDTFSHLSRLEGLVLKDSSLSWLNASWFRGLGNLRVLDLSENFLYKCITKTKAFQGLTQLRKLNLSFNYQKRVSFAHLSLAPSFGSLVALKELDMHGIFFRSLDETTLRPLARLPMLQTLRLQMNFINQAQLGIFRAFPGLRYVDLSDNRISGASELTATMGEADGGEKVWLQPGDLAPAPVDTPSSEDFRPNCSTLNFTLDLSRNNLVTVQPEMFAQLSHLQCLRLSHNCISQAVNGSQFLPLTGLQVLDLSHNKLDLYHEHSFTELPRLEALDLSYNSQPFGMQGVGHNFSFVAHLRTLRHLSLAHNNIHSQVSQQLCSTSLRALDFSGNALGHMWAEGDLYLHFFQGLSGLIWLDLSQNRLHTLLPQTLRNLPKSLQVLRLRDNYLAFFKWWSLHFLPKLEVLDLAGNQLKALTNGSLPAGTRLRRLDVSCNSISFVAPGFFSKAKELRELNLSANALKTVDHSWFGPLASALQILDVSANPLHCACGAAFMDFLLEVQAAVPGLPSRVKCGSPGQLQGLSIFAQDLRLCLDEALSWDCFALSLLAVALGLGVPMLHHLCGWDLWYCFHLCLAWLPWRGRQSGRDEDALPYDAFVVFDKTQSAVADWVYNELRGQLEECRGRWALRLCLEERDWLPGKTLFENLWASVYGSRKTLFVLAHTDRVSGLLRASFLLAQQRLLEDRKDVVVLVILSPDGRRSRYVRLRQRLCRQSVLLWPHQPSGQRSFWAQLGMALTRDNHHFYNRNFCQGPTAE
- Assay notes: TLR7/8/9 Inhibition Reporter Assays (TLR9)
- Test settings: HEK-Blue cells overexpressing human TLR9, SEAP reporter, stimulated with TLR9 ligand ODN2006
Bear in mind: pIC50 is minus log10 of a mol/L concentration; give just that figure.

Ask: # value lookup — system human TLR9 (Homo sapiens), readout pIC50, item Cc1nc(-c2ccc(N3C[C@@H]4CN(C5CCC5)C[C@@H]4C3)cc2)cc2c1nc(-c1ccc(S(C)(=O)=O)cc1)n2C
Reply: 7.43

Ask: # value lookup — system human TLR9 (Homo sapiens), readout pIC50, item Cc1nc(-c2ccc(N3C[C@H]4CN(CC(C)(C)O)C[C@H]4C3)cc2)cc2c1nc(-c1ccc(S(C)(=O)=O)cc1)n2C
Reply: 7.10

Ask: # value lookup — system human TLR9 (Homo sapiens), readout pIC50, item CC(C)N1CCN(c2ccc(-c3cc4c(cn3)nc(-c3ccc(S(C)(=O)=O)cc3)n4C)cc2)CC1
Reply: 6.64

Ask: # value lookup — system human TLR9 (Homo sapiens), readout pIC50, item CC(C)CN1CC2(CCN(c3ccc(-c4cc5c(cn4)nc(-c4ccc(S(C)(=O)=O)cc4)n5C4CC4)cc3)CC2)C1
Reply: 6.57

Ask: # value lookup — system human TLR9 (Homo sapiens), readout pIC50, item COc1ccc(-c2nc3c(C)nc(-c4ccc(N5CCC6(CC5)CN(C(C)C)C6)cc4)cc3n2C)cc1OC
Reply: 6.85

Ask: # value lookup — system human TLR9 (Homo sapiens), readout pIC50, item CC(C)CN1CCC(N2CCC(c3cc4c(nc(-c5ccc(S(C)(=O)=O)cc5)n4C)c(C(F)(F)F)n3)CC2)CC1
Reply: 6.23

Ask: # value lookup — system human TLR9 (Homo sapiens), readout pIC50, item COc1ccc(-c2nc3c(C)nc(-c4ccc(N5CCC6(CC5)CN(C5CCC5)C6)cc4)cc3n2C)cc1OC
Reply: 7.21

Ask: # value lookup — system human TLR9 (Homo sapiens), readout pIC50, item CC(C)N1CCC(N2CCC(c3cc4c(nc(-c5ccc(S(C)(=O)=O)cc5)n4C)c(C(F)(F)F)n3)CC2)CC1
Reply: 6.96

Ask: # value lookup — system human TLR9 (Homo sapiens), readout pIC50, item Cc1nc(-c2ccc(CN3CCC(N4CCCC4)CC3)cc2)cc2c1nc(-c1ccc(S(C)(=O)=O)cc1)n2C
Reply: 7.24

Ask: # value lookup — system human TLR9 (Homo sapiens), readout pIC50, item COc1cc(-c2nc3c(C)nc(-c4ccc(N5CCN(C(C)C)CC5)cc4)cc3n2C)cn2ncnc12
Reply: 6.66

Ask: # value lookup — system human TLR9 (Homo sapiens), readout pIC50, item Cc1cc(-c2nc3c(C)nc(-c4ccc(N5CCN(CC(C)C)CC5)cc4)cc3n2C)cc(C)n1
Reply: 6.42

Ask: # value lookup — system human TLR9 (Homo sapiens), readout pIC50, item Cc1nc(C2CCN(C3CCN(CC(C)(C)O)CC3)CC2)cc2c1nc(-c1ccc(S(C)(=O)=O)cc1)n2C
Reply: 6.92

Ask: # value lookup — system human TLR9 (Homo sapiens), readout pIC50, item Cc1nc(-c2ccc(N3CCC(N(C)C)CC3)cc2)cc2c1nc(-c1ccc(S(C)(=O)=O)cc1)n2C
Reply: 6.92

Ask: # value lookup — system human TLR9 (Homo sapiens), readout pIC50, item Cc1nc(-c2ccc(N3CC4(CCN(CC(C)C)CC4)C3)cc2)cc2c1nc(-c1ccc(S(C)(=O)=O)cc1)n2C
Reply: 7.20

Ask: # value lookup — system human TLR9 (Homo sapiens), readout pIC50, item Cc1nc(-c2ccc(N3CC4(C3)CN(C3CCC3)C4)cc2)cc2c1nc(-c1ccc(S(C)(=O)=O)cc1)n2C
Reply: 6.89

Ask: # value lookup — system human TLR9 (Homo sapiens), readout pIC50, item Cc1nc(-c2ccc(N3CCN(C4CCC4)CC3)cc2)cc2c1nc(-c1ccc(S(C)(=O)=O)cc1)n2C
Reply: 6.35

Ask: # value lookup — system human TLR9 (Homo sapiens), readout pIC50, item COc1ccc(-c2nc3c(C)nc(-c4ccc(N5CC6(CN(CC(C)C)C6)C5)cc4)cc3n2C)cc1OC
Reply: 6.89

Ask: # value lookup — system human TLR9 (Homo sapiens), readout pIC50, item Cc1nc(-c2ccc(CCN3CCC(N4CCOCC4)CC3)cc2)cc2c1nc(-c1ccc(S(C)(=O)=O)cc1)n2C
Reply: 7.13

Ask: # value lookup — system human TLR9 (Homo sapiens), readout pIC50, item Cc1nc(-c2ccc(CN3CCC(N(C)C4CC4)CC3)cc2)cc2c1nc(-c1ccc(S(C)(=O)=O)cc1)n2C
Reply: 6.64

Ask: # value lookup — system human TLR9 (Homo sapiens), readout pIC50, item COc1ccc(-c2nc3cnc(-c4ccc(N5CC6(CN(CC(C)C)C6)C5)cc4)cc3n2C2CC2)cc1OC
Reply: 6.77

Ask: # value lookup — system human TLR9 (Homo sapiens), readout pIC50, item Cn1c(-c2ccc(S(C)(=O)=O)cc2)nc2cnc(-c3ccc(N4CCC5(CC4)CN(C4COC4)C5)cc3)cc21
Reply: 6.13

Ask: # value lookup — system human TLR9 (Homo sapiens), readout pIC50, item CC(C)CN1CCC(N2CCC(c3cc4c(cn3)nc(-c3ccc(S(C)(=O)=O)cc3)n4C)CC2)CC1
Reply: 6.62

Ask: # value lookup — system human TLR9 (Homo sapiens), readout pIC50, item Cc1nc(-c2ccc(C3CCNCC3)cc2)cc2c1nc(-c1ccc(S(C)(=O)=O)cc1)n2C
Reply: 5.96

Ask: # value lookup — system human TLR9 (Homo sapiens), readout pIC50, item COc1ccc(-c2nc3c(C)nc(-c4ccc(N5CCC6(CC5)CN(C5COC5)C6)cc4)cc3n2C)cc1OC
Reply: 6.64

Ask: # value lookup — system human TLR9 (Homo sapiens), readout pIC50, item Cc1cc(-c2nc3c(C)nc(-c4ccc(N5CCN(C(C)C)CC5)cc4)cc3n2C)cc(C)n1
Reply: 6.39

Ask: # value lookup — system human TLR9 (Homo sapiens), readout pIC50, item Cc1nc(-c2ccc(N3CC4(C3)CN(C3COC3)C4)cc2)cc2c1nc(-c1ccc(S(C)(=O)=O)cc1)n2C
Reply: 6.01

Ask: # value lookup — system human TLR9 (Homo sapiens), readout pIC50, item Cc1nc(-c2ccc(N3CCN(CC(C)(C)O)CC3)cc2)cc2c1nc(-c1ccc(S(C)(=O)=O)cc1)n2C
Reply: 6.05

Ask: # value lookup — system human TLR9 (Homo sapiens), readout pIC50, item COc1ccc(-c2nc3c(C)nc(-c4ccc(N5CC6(CN(CC(C)(C)O)C6)C5)cc4)cc3n2C)cc1OC
Reply: 7.05
